- test.details: Half life in PBS buffer (pH 7.4) at 37 degree C (DMSO employed as cosolvent)
- Type: ADME
- condition.set: PBS buffer with DMSO as cosolvent
property: half-life

Ask | Reported half-life, compound CC[C@@]1(OC(C)=O)C(=O)OCc2c1cc1n(c2=O)Cc2cc3ccccc3nc2-1 : ____
Reply | > 72 h

---

- test.details: Half life in PBS buffer (pH 7.4) at 37 degree C
- Format: ADME
property: half-life
Answer with the figure and its unit, nothing else.

Ask | Reported half-life, compound CC[C@@]1(OC(=O)CN)C(=O)OCc2c1cc1n(c2=O)Cc2cc3ccccc3nc2-1.O=C(O)C(F)(F)F : ____
Reply | 3.5 h
